Experiment: Volume of distribution at steady state in Wistar rat at 0.3 mg/kg, iv administered as infusion by LC-MS/MS analysis
Type: ADME, organism-based
Details: in vivo, read-out: Vdss
experimental_readout: Vd (L/kg)
Only the number, expressed in L/kg, is required.

Problem: Which value of Vd has been reported for CCCC[C@H](CO)NC(=O)c1c(C)nc2c(OCc3c(F)cccc3F)cccn12 in the records?
Solution: 0.9

---

Test: Metabolic stability in rat hepatocytes assessed as clearance measured upto 90 mins by LC-MS/MS analysis
Type: ADME, cell-based, Hepatocyte
experimental_readout: CLhep predicted (mL/min/kg)
Only the number, expressed in mL/min/kg, is required.

Recorded CLhep predicted, per entry:
| molecule | units_of_measure | CLhep predicted |
| --- | --- | --- |
| CCCC[C@H](CO)NC(=O)c1c(C)nc2c(OCc3ccccc3)cccn12 | mL/min/kg | 38.3 |
| CCCC[C@H](CO)NC(=O)c1c(C)nc2c(OCc3c(F)cc(F)cc3F)cccn12 | mL/min/kg | 26.7 |

Problem: Which value of CLhep predicted has been reported for CCCC[C@H](CO)NC(=O)c1c(C2CC2)nc2c(OCc3c(F)cccc3F)cccn12 in the records?
Solution: 36.7

Problem: Which value of CLhep predicted has been reported for CCCC[C@H](CO)NC(=O)c1cnc2c(OCc3c(F)cccc3F)cccn12 in the records?
Solution: 13.3

Problem: Which value of CLhep predicted has been reported for CCCC[C@H](CO)NC(=O)c1c(C)nc2c(OCc3c(F)cccc3F)cccn12 in the records?
Solution: 33.3
